The reader will find reported Ratio values listed item by item below.
- assay.target: Glutamate NMDA receptor; GRIN1/GRIN2A (Homo sapiens) (UniProt Q05586+Q12879)
- test.protocol: Antagonist activity at wild type NR1/NR2A receptor expressed in Xenopus oocytes assessed as ratio of residual current induced by agonist in presence of compound to residual current induced by agonist alone at 10 uM by two-electrode voltage-clamp method
- Format: functional, cell-based
- condition.description: Oocyte

- compound.structure: "CCN(CC)CCCOC(=O)c1ccc(O)cc1O"
  assay.target: "Glutamate NMDA receptor; GRIN1/GRIN2A (Homo sapiens) (UniProt Q05586+Q12879)"
  Ratio: 0.97
- compound.structure: "COc1cc(/C=C2\\SC(Nc3cccc(Cl)c3Cl)=NC2=O)ccc1O"
  assay.target: "Glutamate NMDA receptor; GRIN1/GRIN2A (Homo sapiens) (UniProt Q05586+Q12879)"
  Ratio: 0.97
- compound.structure: "O=C1N=C(N2CCN(c3cccc(Cl)c3)CC2)S/C1=C\\c1ccc(O)cc1"
  assay.target: "Glutamate NMDA receptor; GRIN1/GRIN2A (Homo sapiens) (UniProt Q05586+Q12879)"
  Ratio: 0.9
- compound.structure: "O=C(CN1CCc2[nH]c3ccccc3c2C1)c1c[nH]c2ccccc12"
  assay.target: "Glutamate NMDA receptor; GRIN1/GRIN2A (Homo sapiens) (UniProt Q05586+Q12879)"
  Ratio: 0.96
- compound.structure: "N=C1/C(=C/c2ccc(O)cc2)C(=O)N=C2SC(Cc3ccc(Cl)cc3)=NN12"
  assay.target: "Glutamate NMDA receptor; GRIN1/GRIN2A (Homo sapiens) (UniProt Q05586+Q12879)"
  Ratio: 0.99
- compound.structure: "O=C1N=C(N2CCN(Cc3ccccc3)CC2)S/C1=C/c1ccc(O)cc1"
  assay.target: "Glutamate NMDA receptor; GRIN1/GRIN2A (Homo sapiens) (UniProt Q05586+Q12879)"
  Ratio: 0.9
